meta.source: patent US20050272824A1

# System: BXPC3
# procedure details: In vitro cytotoxicity (modified MTT) assay, BXPC3
# Format: cell-based
# test parameters: BXPC3, Pancreatic Adenocarcinoma; MTT after 48 h; average of three independent experiments in triplicate
measurement kind: IC50
Numeric answer plus unit only.

q: IC50 lookup needed for COc1ccc(/C=C\c2cc(OC)c(OC)c(OC)c2)cc1O [CA-4, Combretastatin A-4] , thanks.
a: 57 µM

----------
# Tested on: DU145
# procedure details: In vitro cytotoxicity (modified MTT) assay, DU145
# Format: cell-based
# test parameters: DU145, Prostate Carcinoma; MTT after 48 h; average of three independent experiments in triplicate
measurement kind: pIC50
Answers are plain numbers, as −log10 of the molar value.

q: Reported pIC50 for COc1ccc(/C=C\c2cc(OC)c(OC)c(OC)c2)cc1O : what is it?
a: 8.11

----------
For each entry below, report its pIC50 value.
# Test system: P30 (H460 cells selected at 30 nM paclitaxel)
# procedure details: In vitro cytotoxicity assay of resistant cell line P30
# Assay type: cell-based, human
# test parameters: P30 cells (H460 selected at 30 nM paclitaxel); MTT after 48 h
Answers are plain numbers, as −log10 of the molar value.

compound: N.N.[Cl][Pt][Cl] [Cisplatin]
pIC50: 7.60

The record that follows has no pIC50 shown yet.
q: Entry COc1ccc(/C=C\c2cc(OC)c(OC)c(OC)c2)cc1O has what pIC50?
a: 8.07

----------
# Tested on: CEM
# procedure details: In vitro cytotoxicity (modified MTT) assay, CEM
# Format: cell-based
# test parameters: Acute Lymphoblastic Leukemia, MTT after 48 h, average of three independent experiments in triplicate
# Protocol: A panel of cells lines obtained from American Type Culture Collection (Rockville, Md., USA) was initially assayed against CA-4 to screen for drug sensitivity. The human non-small cell lung carcinoma (NSCLC), NCI-H460, was selected for resistance based on significant cytotoxicity. […] Cytoxicity assays was assessed using a modified MTT assay (Mosmann, 1983). […] Percentage survival was calculated as the OD560 of the treated sample divided by the OD560 of the untreated control cell line. […]
measurement kind: pIC50
Answers are plain numbers, as −log10 of the molar value.

q: What reported pIC50 corresponds to COc1ccc(/C=C\c2cc(OC)c(OC)c(OC)c2)cc1O [CA-4, Combretastatin A-4] on CEM?
a: 9.60

----------
# Test system: V30 (H460 cells selected at 30 nM vinblastine)
# procedure details: In vitro cytotoxicity assay of resistant cell line V30
# Format: cell-based, human
# test parameters: V30 cells (H460 selected at 30 nM vinblastine); MTT after 48 h
measurement kind: IC50 (nM)
Answers are plain numbers, in nM.

compound: N.N.[Cl][Pt][Cl] [Cisplatin]
IC50, nM: 21.7

# context switch: different compound, same IC50
q: Which IC50 is listed for COc1ccc(/C=C\c2cc(OC)c(OC)c(OC)c2)cc1O ?
a: 9.2
